tested on: A549 lung cancer cell; experiment: MTT cell growth inhibition assay, A549; assay type: cell-based, human; conditions: MTT, 48 h incubation, A549
endpoint: IC50

molecule	assay-result
COc1ccc(/C=C\c2cc(OC)c(OC)c(OC)c2)cc1OP(=O)(O)O [CA-4P, reference compound]	> 100 µM

###

tested on: AGS cells; assay: MTT cell growth inhibition assay, AGS; type: cell-based, human; settings: Homo sapiens; MTT, 48 h incubation, AGS
# IC50 listing for each entry below

molecule	qualifier-sign	IC50 (µM)
COc1cc(/C(C#N)=C/c2cccs2)cc(OC)c1OC	=	8.01
COc1cc(/C(C#N)=C/c2ccccn2)cc(OC)c1OC	>	100
CCc1ccc(/C=C(\C#N)c2ccc(C)cc2)cc1 [Compound 13b]	=	26.5
CCc1ccc(/C=C(\C#N)c2cc(OC)c(OC)c(OC)c2)cc1	=	4.38
COc1cc(/C=C(\C#N)c2ccc(C)cc2)cc(OC)c1OC [Compound 13c]	=	66.2
COc1ccc(/C=C\c2cc(OC)c(OC)c(OC)c2)cc1O [CA-4, reference compound]	=	3.42
Cc1ccc(/C(C#N)=C/c2cccs2)cc1 [Compound 14a]	>	100
Cc1ccc(/C(C#N)=C/c2ccccn2)cc1 [Compound 14b]	>	100
COc1cc(/C(C#N)=C/c2ccc([N+](=O)[O-])cc2)cc(OC)c1OC	>	100
COc1ccc(/C=C(\C#N)c2cc(OC)c(OC)c(OC)c2)cc1	=	0.05
COc1cc(/C=C(\C#N)c2cc(OC)c(OC)c(OC)c2)cc(OC)c1OC	=	44.6
CC(=O)O[C@H]1C(=O)[C@@]2(C)[C@H]([C@H](OC(=O)c3ccccc3)[C@]3(O)C[C@H](OC(=O)[C@H](O)[C@@H](NC(=O)c4ccccc4)c4ccccc4)C(C)=C1C3(C)C)[C@]1(OC(C)=O)CO[C@@H]1C[C@@H]2O [Taxol, reference compound]	=	0.02
Cc1ccc(/C(C#N)=C/c2ccccc2)cc1 [Compound 13d, (Z)-3-Phenyl-2-(p-tolyl)acrylonitrile]	>	100
COc1cc(/C(C#N)=C/c2ccc(Oc3ccccc3)cc2)cc(OC)c1OC	>	100
COc1cc(/C(C#N)=C/c2ccc(C)cc2)cc(OC)c1OC	=	0.51
COc1cccc(/C=C(\C#N)c2cc(OC)c(OC)c(OC)c2)c1	>	100
Cc1ccc(/C=C(\C#N)c2ccc(C)cc2)cc1 [Compound 13a, (Z)-2,3-Di-p-tolylacrylonitrile]	=	27.9
COc1cc(/C(C#N)=C/c2ccc(C(C)C)cc2)cc(OC)c1OC	=	1.33
